Give cytotoxicity at 70.5 h for every item shown.
# protocol.notes: Human HepG2 cell viability assay in 384 well format
# Assay type: toxicity, cell-based
# Parameters: dose 125 nL, time 70.5 hour; concentration not given beside the values
# condition.context: HepG2 cells, read-out: Inhibition
# value in %; strip the unit string

response.value for "CC(C)(C)CN1CCOC[C@H]1c1nc(-c2cccc(F)c2)c[nH]1" (field: cytotoxicity at 70.5 h) = -6.97

For O=C(c1ccoc1)N1CCC2(CCCN(c3ncc(F)cn3)C2)C1 (configuration not stated) the compound record lists cytotoxicity at 70.5 h as -1.48

Lookup result for "Cn1ccc2ccc(C(=O)N3CCC[C@H]3C(=O)N3CCOCC3)cc21" ; measured cytotoxicity at 70.5 h: -11.1

Notebook: COCCN1CCCCC12CC(=O)N(c1cccc(C#N)c1)C2 (configuration not stated) , cytotoxicity at 70.5 h read as -4.04

What the record says about O=C(O)CN1CCOCC(Cc2ccc(Cl)cc2)C1 (configuration not stated) : cytotoxicity at 70.5 h is -7.85

The compound "COc1cc(CNCCc2cnn(C)c2)cc(OC)c1OC" showed cytotoxicity at 70.5 h equal to 21.4

Please fill in: cytotoxicity at 70.5 h reported for "Cc1ccc(Cn2nc(C)c3c(C(=O)O)c(Cl)c(C)nc32)cc1" = -12.9

Kindly note the recorded cytotoxicity at 70.5 h for COCC(=O)NC(c1ccc(Cl)cc1)C(F)(F)F (configuration not stated) , which is -12.5

Query "CN1CCCN(c2cnn(Cc3ccc(C(C)(C)C)cc3)c(=O)c2)CC1" yields cytotoxicity at 70.5 h of -8.93

Form field cytotoxicity at 70.5 h, entry "O=C(C1CC1)N1Cc2[nH]nc(COCc3cccnc3)c2C1" : -0.809

Quick note, cytotoxicity at 70.5 h for "CN(CC(N)=O)C(=O)CCCn1ccc2cc(Cl)ccc21" landed at 10.8

Memo: Cc1nc(CN2CCC3(CC2)NC(=O)CC3c2cccnc2)cs1 (configuration not stated) , reported cytotoxicity at 70.5 h: -8.17
